Test: PSAC antagonists in infected red cells, primary screen, cell-based, P. falciparum Indochina, OD700, 18 h (AID 1157)
Conditions: P. falciparum Indochina infected erythrocytes, osmotic lysis OD700, 18 h; higher = more signal, called active from +8 up or from −8 down
reported.property: z-score

compound | result.value
O=C/C=C/c1ccc(Cl)cc1 | -2.54
C=CCNC(=O)[C@@H]1[C@H]2C(=O)O[C@H](c3ccccc3)[C@H](c3ccccc3)N2[C@H](c2ccccc2OCCO)[C@@]12C(=O)Nc1ccc(C#CC3=CCCCC3)cc12 | 0.0442
O=C1[C@]2(CO)C=C(Br)[C@@H](C[C@@H]2c2ccccc2)[C@@]12CO2 | -0.187
COCC1=C2[C@@H](CCc3ccccc3)OB(O)C[C@@H]2[C@@H]2C(=O)N(Cc3ccccc3)C(=O)[C@@H]2C1 | 0.0831
COC(=O)[C@@]1(Cc2ccccc2)[C@H]2c3cc(C(=O)N4CCCC4)n(C)c3C[C@H]2CN1C(=O)c1ccccc1 | 0.396
O=C1C2C=CC(C(O)c3ccc(B(O)O)cc3)N(Nc3ccccc3)C2C(=O)N1c1ccccc1 (stereo unspecified) | -0.447
O=C1O[C@@H](c2ccccc2)[C@@H](c2ccccc2)N2[C@@H](c3ccccc3OCCO)[C@]3(C(=O)Nc4ccc(C#CC5(O)CCCCCC5)cc43)[C@@H](C(=O)Nc3nc4ccccc4s3)[C@H]12 | 1.56
C=C(CCCC)/C(=C/C[C@H](OC(C)=O)c1ccc(CO)o1)c1cnc2ccccc2c1 | 0.136
O=C1O[C@H](c2ccccc2)[C@H](c2ccccc2)N2[C@H]1[C@@H](C(=O)NC[C@H](O)c1ccccc1)[C@]1(C(=O)Nc3ccc(C#CCCO)cc31)[C@H]2c1ccc(O)cc1 | -1.23
C=CCNC(=O)[C@@H]1[C@H]2C(=O)O[C@H](c3ccccc3)[C@H](c3ccccc3)N2[C@H](c2ccc(O)cc2)[C@@]12C(=O)N(C(=O)OCCOC)c1ccccc12 | -1.08
CC(C)CNC(=O)[C@@H]1c2ccccc2C(=O)N(Cc2cc(C(F)(F)F)cc(C(F)(F)F)c2)[C@H]1c1ccc(CO)cc1 | 0.379

* * *

Assay: E. coli growth modulation, two-sided OD650, primary screen, E. coli filamentation project, strain DRC41, 24 h (AID 1093);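 further: MC1000 strain lacking acrAB efflux and sulA so SOS filamentation is blocked; test concentration not given here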
Conditions: OD650, 24 h, higher = more signal, called active from +8 up or from −8 down
reported.property: z-score

compound | reported.property | result.value
O=C(CS)NCCCCCCNC(=O)[C@H]1C[C@H]2C(=O)N3CCC[C@H]3C(=O)N2[C@H]1c1cccc(OCCO)c1 | z-score | -0.983
C=C(CCCC)C(=O)CC[C@H](OC(=O)c1cccnc1)c1cccc(OCCO)c1 | z-score | 0.241
COc1cc2c(cc1O)C(C)N(Cc1cccc(OC(F)(F)F)c1)CC2 (configuration not stated) | z-score | -1.26
COCCOC(=O)N1C(=O)[C@@]2(c3cc(C#CCC(C(=O)OC)C(=O)OC)ccc31)[C@H](C(=O)N1CCN(c3ncccn3)CC1)[C@H]1C(=O)O[C@H](c3ccccc3)[C@H](c3ccccc3)N1[C@@H]2c1ccc(OCCO)cc1 | z-score | 1.36
COC(=O)c1ccc(C23CC2(C(NP(=O)(c2ccccc2)c2ccccc2)c2ccccc2)C3)cc1 (configuration not stated) | z-score | 0.259
CCOC(=O)C[C@H]1[C@H](OC(=O)c2ccc(-c3ccccc3)cc2)[C@@H](NC(=O)c2ccc(-c3ccccc3)cc2)c2cc(OCCCO)ccc2N1C(=O)Cc1ccc(OC)cc1 | z-score | -0.963
C=C[C@H](COC(C)=O)N(Cc1ccc(OC(C)=O)c(OC)c1)S(=O)(=O)c1ccc(Br)cc1 | z-score | 1.24

* * *

Test system: Plasmodium falciparum Sir2 (PF13_0152, Sir2A)
Experiment: pfSir2 binders on small-molecule microarrays, primary screen, biochemical, small-molecule microarray, 635 nm fluorescence (AID 1098);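 further: score merges spot fluorescence intensity with its signal-to-noise ratio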
Settings: small-molecule microarray binding, fluorescence 635 nm; higher = more signal
Property: composite z-score; scope: individual compounds

smi | measurement.target | composite z-score
O=C1N(CCS(=O)(=O)c2ccccc2)c2ccccc2C[C@@]12COC(c1ccc(OCCCO)cc1)=N2 | Plasmodium falciparum Sir2 (PF13_0152, Sir2A) | 1.51
C=CC(=C)C1=CCO[C@@H]1[C@H]1CCCN1S(=O)(=O)c1ccccc1[N+](=O)[O-] | Plasmodium falciparum Sir2 (PF13_0152, Sir2A) | 0.487
[N-]=[N+]=NCc1ccccc1C[C@@]1(C(=O)N2CCOCC2)N=C(c2ccc(OCCCO)cc2)O[C@@H]1c1ccccc1CN=[N+]=[N-] | Plasmodium falciparum Sir2 (PF13_0152, Sir2A) | 1.63

* * *

Target: E3 ubiquitin-protein ligase XIAP (Homo sapiens)
Test: XIAP binders, primary screen, biophysical, small-molecule microarray, fluorescence 635 nm (AID 1181);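 further: score merges 667 nm emission and signal to noise over triplicate slides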
Conditions: small-molecule microarray binding, higher = more signal

molecule | composite z-score
COc1ccc(C(O)C2C=CC3C(=O)NC(=O)C3N2Nc2ccccn2)cc1OCc1ccccc1 (stereo not drawn) | 0.578
CN(C)C(=O)[C@@]1(CCC(=O)OC(C)(C)C)N=C(c2ccc(OCCCO)cc2)O[C@H]1c1ccccc1 | -0.168
COCCOC(=O)N1C(=O)[C@@]2(c3cc(C#Cc4ccc(OC)cc4)ccc31)[C@H](C(=O)N1CCN(c3ncccn3)CC1)[C@H]1C(=O)O[C@H](c3ccccc3)[C@H](c3ccccc3)N1[C@@H]2c1ccc(O)cc1 | 0.134

* * *

Collected composite z-score values appear next to each entry.
System: Human papillomavirus type 1a protein E7 (residues 44-93)
Test: HPV1a E7 fragment binders on microarrays, primary screen, biochemical, small-molecule microarray, residues 44-93, 635 nm fluorescence (AID 1108);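 further: E7 fragment applied at 1 µg/mL in TBST for 1 h at 4 C; score combines spot fluorescence with its signal to noise ratio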
Conditions: small-molecule microarray binding, fluorescence 635 nm; higher = more signal
reported.property: composite z-score

molecule | result.value
O=C1OCCC=C[C@H]2OC34C=CCN(Cc5ccccc5)C(=O)[C@H]3N(CCCCCO)C(=O)[C@@H]4C12 (stereo partly drawn) | 1.1
COCCOC(=O)N1C(=O)[C@@]2(c3cc(C#CCC(C(=O)OC)C(=O)OC)ccc31)[C@H](c1ccccc1OCCO)N1[C@H](c3ccccc3)[C@H](c3ccccc3)OC(=O)[C@H]1[C@@H]2C(=O)N1CCc2cc(OC)c(OC)cc2C1 | 1.2
C=CC[C@@]1(C(=O)N2CCOCC2)N=C(c2ccc(OCCCO)cc2)O[C@@H]1c1ccccc1N=[N+]=[N-] | 1.45

* * *

Molecular target: Calmodulin-1 (Homo sapiens)
Experiment: calcium-bound CALM1 binders on microarrays, profiling panel, artefact control for SMM control-protein annotation, biochemical, small-molecule microarray, Cy5-labelled CALM1, plus calcium (AID 1112);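 further: score merges spot fluorescence with signal to noise from triplicate slides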
Conditions: Cy5-CALM1 binding fluorescence, higher = more signal

molecule | composite z-score
NCCCCCCNC(=O)[C@H]1C[C@H]2C(=O)NCC(=O)N2[C@H]1c1cccc(OCCO)c1 | -0.369
C=CCC(OC(C)=O)[C@@H]1[C@@H](N(Cc2cccc3ccccc23)C(=O)c2cccc3ccccc23)c2cc(OCCCO)ccc2N1C(=O)c1ccc2ccccc2n1 (some centres undefined) | 0.117
COc1ccc(NN2C(C(O)c3ccc(OC)c(OCc4ccccc4)c3)C=CC3C(=O)N(C4CCCCC4)C(=O)C32)cc1 (centres undefined) | 0.63
COCCCNC(=O)[C@@]1(CCC(=O)OC(C)(C)C)N=C(c2ccc(OCCCO)cc2)O[C@H]1c1ccccc1CN=[N+]=[N-] | 0.854
COc1ccc(C#Cc2ccc3c(c2)[C@]2(C(=O)N3)[C@H](c3ccc(O)cc3)N3[C@H](c4ccccc4)[C@H](c4ccccc4)OC(=O)[C@H]3[C@@H]2C(=O)NC[C@H](O)c2ccccc2)cc1 | 0.689
COC(=O)[C@@]1(Cc2ccccc2)[C@H]2c3cc(C(=O)N4CCCC4)n(Cc4ccc(C)o4)c3C[C@H]2CN1C(=O)c1ccccc1 | -0.149
CCCCCCCCCCC(O)C1C=CC2C(=O)N(Cc3ccccc3)C(=O)C2N1n1cnnc1 (centres undefined) | 0.727
Cc1cc(C)c(C(O)C2C=CC3C(=O)N(c4ccccc4)C(=O)C3N2Nc2ccc(C#N)cc2)c(C)c1 (centres undefined) | 1.17
COC(=O)C1=CC(CCCO)=CC(C2CC2)N(Cc2sc3ccccc3c2Cl)C=C1C(=O)OC (centres undefined) | 0.952
Cc1ccc(S[C@]2(C(=O)NCC(C)C)CC(=O)N(Cc3ccccc3)[C@@H]2c2ccc(CO)cc2I)cc1 | 0.473
COCCOC(=O)N1C(=O)[C@@]2(c3cc(C#CC4(O)CCCCCC4)ccc31)[C@H](C(=O)N1CCCCCCC1)[C@H]1C(=O)O[C@H](c3ccccc3)[C@H](c3ccccc3)N1[C@@H]2c1ccccc1OCCO | 1.22
O=c1cccc(C=Cc2ccccc2)o1 | -0.274
COC(=O)C(CC#Cc1ccc2c(c1)[C@]1(C(=O)N2)[C@H](c2ccc(OCCO)cc2)N2[C@H](c3ccccc3)[C@H](c3ccccc3)OC(=O)[C@H]2[C@@H]1C(=O)NC[C@H](O)c1ccccc1)C(=O)OC | 0.524
COC(=O)[C@@]1(Cc2ccc(F)cc2)[C@H]2c3cc(C(=O)N4CCCC4)n(Cc4cccc5ccccc45)c3C[C@H]2CN1C(=O)c1ccccc1 | 0.0721
